test system: BT474 cells; assay: MTT cytotoxicity assay, BT474 cells; type: cell-based, human; settings: 48 h, in conditioned medium, n = 3, read-out: IC50
endpoint: IC50
Express your answer as a number followed by its unit.

Quick check: IC50 of COc1cccc2c1C(=O)c1c(O)c3c(c(O)c1C2=O)C[C@@](O)(C(=O)CO)C[C@@H]3O[C@H]1C[C@H](N)[C@H](O)[C@H](C)O1.Cl [free DOX, Doxorubicin hydrochloride] ?
2080 nM

Source of measurements: paper PMC6058718
